# assay.target: T1, Human Siglec-15, His Tag (human Siglec-15 full-length extracellular domain linked with His tag) (human, UniProt Q6ZMC9 20-263)
# T1 construct: Bought from ACROBiosystems; also called Siglec-15 protein; SG5-H52H3
# T1 sequence: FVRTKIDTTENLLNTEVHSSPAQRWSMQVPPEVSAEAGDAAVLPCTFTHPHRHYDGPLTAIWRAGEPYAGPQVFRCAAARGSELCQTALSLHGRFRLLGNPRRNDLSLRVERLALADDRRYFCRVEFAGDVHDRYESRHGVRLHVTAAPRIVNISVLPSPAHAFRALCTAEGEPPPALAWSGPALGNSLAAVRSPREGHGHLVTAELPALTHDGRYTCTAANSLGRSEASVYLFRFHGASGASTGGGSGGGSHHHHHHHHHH
# procedure.summary: SPR Biacore, antibody captured by anti-human Fc on CM5, Siglec-15 protein as analyte
Recorded Kd, one value per entry.

{"columns": ["binder", "Kd (nM)"],
 "data": [
  ["21F6C6-hH2L3 (antibody, IgG1, V domains shown, Humanized; hIgG1, Kappa) VH: EVQLVESGGGLVKPGGSLRLSCAASGFTFSSYAMSWVRQAPGKGLEWVATISSGGSLIYYADSVTGRFTISRDNAKNTLYLQMNSLRAEDTAVYYCVRHGYYYGDSTLYYAMDYWGQGTTVTVSS VL: DIQLTQSPSSLSASVGDRVTITCRASQSVDYDGDSYMNWYQQKPGKAPKLLIYAASNLESGVPSRFSGSGSGTDFTLTISSLQPEDFATYYCQQSNEAPLTFGQGTKLEIK", 0.0724],
  ["124B11F6-hH1L1 (antibody, IgG1, V domains shown, Humanized; hIgG1 heavy chain constant region, Lambda-C2 light chain constant region) VH: QVQLVQSGAEVKKPGASVKVSCKASVFNIKDYYMHWVRQAPGQGLEWIGRIDPEDDKTKYAPKFQGRATITADTSTNTAYLELSSLRSEDTAVYYCVRGWLGYIMDFWGQGTTVTVSS VL: QLVLTQSPSASFSLGASAKLTCTLSSQHSTYTIDWYQQQPEKGPRYVMELKEDGSHSTGDGIPDRFSGSSSGAERYLTISSIQSEDEADYICGVGATIKEQFVYVFGGGTKVTVL", 0.109],
  ["174C11C9 chimeric antibody (antibody, human IgG1, V domains shown, also called 174C11C9-mHL) VH: EVQLQQSGPVLVKPGASVKMSCEASGYIFTDYYMNWVKQSPGKSLEWIGVFNPYSGGISYNQKFKGKATLTVDTSSSTAYMELNSLTSEDSAVYYCARDYYYLSSHGFYALDYWGQGTSVTVSS VL: DIVLTQSPASLAVSLGQRATISCRASESVDSYGNSFIHWYQQRPGRPPKLLMYRASNLESGIPARFSGSGSRTDFTLTIDPVEADDVATYYCQQSNEDPLTFGAGTKLELK", 0.175]
]}
